Data origin, for the record: patent US9062066B2

# Test system: oxazolone-induced skin inflammation of Balb/C mouse ears
# assayProtocol: mouse skin inflammatory model induced by oxazolone (ear thickness)
# Type: in vivo
# conditionParameters: 20 ul of 0.1% compound topical on ear, 36 hours after oxazolone
This listing pairs compounds with measured Inhibition (%) of increase of ear thickness.
readoutKind: Inhibition (%) of increase of ear thickness

| structureSmiles | unitTag | numericReadout |
| --- | --- | --- |
| Oc1cccc(Nc2ncnc3cc(-c4ccc(CN5CCCC5)o4)sc23)c1 | % | 48 |
| C[C@@H]1CCC[C@H](C)N1Cc1ccc(-c2cc3ncnc(Nc4cccc(O)c4)c3s2)cc1.Cl | % | 59 |
| Oc1cccc(Nc2ncnc3cc(-c4cccc(CCN5CCNCC5)c4)sc23)c1 | % | 51 |
| CCN(CC)Cc1cccc(-c2cc3ncnc(Nc4cccc(O)c4)c3s2)c1.Cl | % | 51 |
| CN1CCN(Cc2ccc(-c3cc4ncnc(Nc5cccc(O)c5)c4s3)cc2)CC1 | % | 28 |
| CN1CCN(Cc2ccc(-c3cc4ncnc(Nc5cccc(O)c5)c4s3)o2)CC1 | % | 43 |
| Oc1cccc(Nc2ncnc3cc(-c4ccc(CN5CCCCC5)s4)sc23)c1 | % | 51 |
| Cl.Oc1cccc(Nc2ncnc3cc(-c4ccc(CN5CCCC5)cc4)sc23)c1 | % | 29 |

###

# targetOrTestSystem: Fgr tyrosine kinase (Homo sapiens (Human), UniProt P09769)
# Sequence (P09769 whole entry): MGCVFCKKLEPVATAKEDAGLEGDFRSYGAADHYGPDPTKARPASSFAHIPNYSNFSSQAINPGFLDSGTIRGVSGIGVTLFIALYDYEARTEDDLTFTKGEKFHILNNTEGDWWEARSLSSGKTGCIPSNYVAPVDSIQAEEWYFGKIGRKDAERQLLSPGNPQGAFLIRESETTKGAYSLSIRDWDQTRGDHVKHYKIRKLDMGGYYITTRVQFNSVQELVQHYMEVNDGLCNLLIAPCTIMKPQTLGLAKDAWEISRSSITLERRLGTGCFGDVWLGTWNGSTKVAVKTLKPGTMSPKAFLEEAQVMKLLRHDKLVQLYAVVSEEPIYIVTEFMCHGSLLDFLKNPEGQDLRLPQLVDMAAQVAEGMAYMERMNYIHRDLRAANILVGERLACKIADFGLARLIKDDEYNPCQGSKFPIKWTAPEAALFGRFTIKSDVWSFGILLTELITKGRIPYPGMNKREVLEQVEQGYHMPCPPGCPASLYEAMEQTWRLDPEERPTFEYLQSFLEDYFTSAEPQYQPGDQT
# assayProtocol: in vitro Fgr tyrosine kinase inhibition
# Format: biochemical
# conditionParameters: 1 uM compound; read-out: % inhibition against Fgr

| compound | inhibition at 1 µM |
| --- | --- |
| Cl.Oc1cccc(Nc2ncnc3cc(-c4cccc(CN5CCNCC5)c4)sc23)c1 | > 80% |
| Oc1cccc(Nc2ccnc3cc(-c4cccc(CN5CCCCC5)c4)sc23)c1 | > 70% |
| COc1cccc(Nc2ncnc3cc(-c4ccoc4)sc23)c1 | > 30% |
| CN1CCN(Cc2cccc(-c3cc4nccc(Nc5cccc(O)c5)c4s3)c2)CC1 | > 80% |
| COc1cccc(Nc2ncnc3cc(-c4ccc(O)cc4)sc23)c1 | > 70% |
| CO[C@@H]1C[C@@H](CO)N(C(=O)c2cc3nccc(Nc4ccc5c(c4)cc(C)n5C(=O)NC4CC4)c3s2)C1 [Control compound 3, reference compound] | < 20% |
| Cl.OCCNCc1ccc(-c2cc3ncnc(Nc4cccc(O)c4)c3s2)cc1 | > 80% |
| COc1ccc(-c2cc3ncnc(Nc4cccc(O)c4)c3s2)cc1 | > 60% |
| Oc1cccc(Nc2ncnc3cc(-c4ccco4)sc23)c1 | > 50% |
| Oc1cccc(Nc2ccnc3cc(-c4ccc(CN5CCNCC5)cc4)sc23)c1 | > 30% |
| CN1CCN(CCc2ccc(-c3cc4ncnc(Nc5cccc(O)c5)c4s3)cc2)CC1 | > 20% |
| CN1CCN(Cc2coc(-c3cc4ncnc(Nc5cccc(O)c5)c4s3)c2)CC1 | > 50% |
| Oc1cccc(Nc2ncnc3cc(-c4cccc(CCN5CCNCC5)c4)sc23)c1 | > 80% |
| Oc1cccc(Nc2ncnc3cc(-c4ccc(CCN5CCOCC5)cc4)sc23)c1 | > 30% |
| COc1cccc(Nc2ncnc3cc(-c4ccc(OCCc5ccccc5)cc4)sc23)c1 | > 60% |
| Oc1cccc(Nc2ccnc3cc(-c4ccc(CN5CCCC5)cc4)sc23)c1 | > 60% |
| C[C@@H]1CCC[C@H](C)N1Cc1ccc(-c2cc3ncnc(Nc4cccc(O)c4)c3s2)cc1.Cl | > 50% |
| CCN(CC)C(=O)c1cccc(-c2cc3ncnc(Nc4cccc(O)c4)c3s2)c1 | > 60% |
| Oc1cccc(Nc2ncnc3cc(-c4cc(CN5CCOCC5)cs4)sc23)c1 | > 50% |
| OCC1CCCN1Cc1ccc(-c2cc3ncnc(Nc4cccc(O)c4)c3s2)cc1 (centres unmarked) | > 50% |
| Oc1cccc(Nc2ncnc3cc(-c4ccc(CN5CCCC5)s4)sc23)c1 | > 70% |
| CN1CCN(Cc2ccc(-c3cc4ncnc(Nc5cccc(O)c5)c4s3)s2)CC1 | > 50% |
| Oc1cccc(Nc2ncnc3cc(-c4ccc(CN5CCNCC5)s4)sc23)c1 | > 60% |
| CC(CO)NC(=O)c1ccc(-c2cc3ncnc(Nc4cccc(O)c4)c3s2)cc1 (centres unmarked) | > 30% |
| CC1CCN(Cc2ccc(-c3cc4ncnc(Nc5cccc(O)c5)c4s3)cc2)CC1 | > 40% |
| Oc1cccc(Nc2ncnc3cc(-c4ccc(CN5CCCCC5)cc4)sc23)c1 | > 80% |
| Oc1cccc(Nc2ccnc3cc(-c4cccc(CN5CCNCC5)c4)sc23)c1 | > 80% |
| Cl.Oc1cccc(Nc2ncnc3cc(-c4cccc(CN5CCCC5)c4)sc23)c1 | > 80% |
| CCOCc1ccc(-c2cc3ncnc(Nc4cccc(O)c4)c3s2)cc1 | > 30% |
| CC(NC(=O)c1ccc(-c2cc3ncnc(Nc4cccc(O)c4)c3s2)cc1)C(=O)O (centres unmarked) | > 30% |
| Oc1cccc(Nc2ncnc3cc(-c4ccc(CN5CCCC5)o4)sc23)c1 | > 70% |
| CCNCc1csc(-c2cc3ncnc(Nc4cccc(O)c4)c3s2)c1 | > 70% |
| CN1CCN(Cc2ccc(-c3cc4nccc(Nc5cccc(O)c5)c4s3)cc2)CC1 | > 60% |
| CN1CCN(Cc2ccc(-c3cc4ncnc(Nc5cccc(O)c5)c4s3)cc2)CC1 | > 80% |
| Oc1cccc(Nc2ccnc3cc(-c4ccc(CN5CCCCC5)cc4)sc23)c1 | > 30% |

###

This listing pairs molecules with measured inhibition at 1 µM.
# targetOrTestSystem: Lyn tyrosine kinase (Homo sapiens (Human), UniProt P07948)
# Sequence (P07948 whole entry): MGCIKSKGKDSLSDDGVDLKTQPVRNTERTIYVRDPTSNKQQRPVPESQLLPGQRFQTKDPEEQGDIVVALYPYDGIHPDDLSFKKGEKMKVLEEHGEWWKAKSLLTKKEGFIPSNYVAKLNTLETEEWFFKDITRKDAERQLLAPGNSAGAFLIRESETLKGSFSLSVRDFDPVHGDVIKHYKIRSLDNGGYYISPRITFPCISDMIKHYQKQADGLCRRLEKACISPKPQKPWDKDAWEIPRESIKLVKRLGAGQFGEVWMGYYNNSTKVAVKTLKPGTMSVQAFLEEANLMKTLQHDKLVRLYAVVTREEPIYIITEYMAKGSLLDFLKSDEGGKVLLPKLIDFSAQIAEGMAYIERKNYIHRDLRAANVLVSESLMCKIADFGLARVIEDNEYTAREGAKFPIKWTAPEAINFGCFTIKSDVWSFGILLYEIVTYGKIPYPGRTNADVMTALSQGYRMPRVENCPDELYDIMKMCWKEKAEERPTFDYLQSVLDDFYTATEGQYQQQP
# assayProtocol: in vitro Lyn tyrosine kinase inhibition
# Assay type: biochemical
# conditionParameters: 1 uM compound; read-out: % inhibition against Lyn
readoutKind: inhibition at 1 µM

| structureSmiles | readoutKind | result |
| --- | --- | --- |
| Oc1cccc(Nc2ncnc3cc(-c4ccc(CN5CCOCC5)o4)sc23)c1 | inhibition at 1 µM | > 70% |
| Oc1cccc(Nc2ncnc3cc(-c4ccc(CN5CCCC5)s4)sc23)c1 | inhibition at 1 µM | > 70% |
| Cl.Oc1cccc(Nc2ncnc3cc(-c4cccc(CN5CCCC5)c4)sc23)c1 | inhibition at 1 µM | > 80% |
| CCNCc1ccc(-c2cc3nccc(Nc4cccc(O)c4)c3s2)cc1 | inhibition at 1 µM | > 30% |
| Oc1cccc(Nc2ncnc3cc(-c4ccc(CN5CCCCC5)o4)sc23)c1 | inhibition at 1 µM | > 70% |

###

# targetOrTestSystem: DDR1 tyrosine kinase (Homo sapiens (Human), UniProt Q08345)
# Sequence (Q08345 610-905): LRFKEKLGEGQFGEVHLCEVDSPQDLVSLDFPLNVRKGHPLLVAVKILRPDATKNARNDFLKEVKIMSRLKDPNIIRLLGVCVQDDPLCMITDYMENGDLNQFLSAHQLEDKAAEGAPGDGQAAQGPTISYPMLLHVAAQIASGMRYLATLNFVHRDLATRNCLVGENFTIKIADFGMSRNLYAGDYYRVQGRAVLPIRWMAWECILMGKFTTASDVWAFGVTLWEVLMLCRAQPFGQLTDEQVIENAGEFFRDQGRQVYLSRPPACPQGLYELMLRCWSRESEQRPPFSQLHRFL
# assayProtocol: in vitro DDR1 tyrosine kinase inhibition (GST-fused kinase domain)
# Format: biochemical
# conditionParameters: 1 uM compound; read-out: % inhibition against DDR1
This listing pairs compounds with measured inhibition at 1 µM.

| compound | inhibition at 1 µM |
| --- | --- |
| CN1CCN(Cc2ccc(-c3cc4ncnc(Nc5cccc(O)c5)c4s3)cc2)CC1 [LCB 03-0036] | > 80% |
| CN1CCN(Cc2ccc(-c3cc4ncnc(Nc5cccc(O)c5)c4s3)o2)CC1 [LCB 03-0087] | > 70% |
| Oc1cccc(Nc2ncnc3cc(-c4cccc(CCN5CCNCC5)c4)sc23)c1 [LCB 03-0079] | > 80% |
| Oc1cccc(Nc2ccnc3cc(-c4ccc(CN5CCCCC5)cc4)sc23)c1 [LCB 03-0097] | > 80% |
| CC1CCN(Cc2ccc(-c3cc4ncnc(Nc5cccc(O)c5)c4s3)cc2)CC1 [LCB 03-0058] | > 80% |
| CC(C)CNCc1ccc(-c2cc3ncnc(Nc4cccc(O)c4)c3s2)cc1 [LCB 03-0041] | > 80% |
| Oc1cccc(Nc2ncnc3cc(-c4cc(CN5CCOCC5)cs4)sc23)c1 [LCB 03-0104] | > 80% |
| COc1cccc(Nc2ncnc3cc(-c4ccc(O)cc4)sc23)c1 [LCB 03-0016] | > 20% |
| Oc1cccc(Nc2ccnc3cc(-c4ccc(CN5CCCC5)cc4)sc23)c1 [LCB 03-0080] | > 80% |
| COc1cccc(Nc2ncnc3cc(-c4ccc(OCCc5ccccc5)cc4)sc23)c1 [LCB 03-0021] | > 30% |
| Cl.Oc1cccc(Nc2ncnc3cc(-c4cccc(CN5CCCCC5)c4)sc23)c1 [LCB 03-0060] | > 80% |
| Oc1cccc(Nc2ncnc3cc(Br)sc23)c1 [LCB 03-0015] | > 20% |
| Oc1cccc(Nc2ncnc3cc(-c4cc(CN5CCNCC5)cs4)sc23)c1 [LCB 03-0105] | > 70% |
| CN1CCN(Cc2ccc(-c3cc4ncnc(Nc5cccc(O)c5)c4s3)s2)CC1 [LCB 03-0092] | > 80% |
| CN1CCN(Cc2cccc(-c3cc4nccc(Nc5cccc(O)c5)c4s3)c2)CC1 [LCB 03-0108] | > 80% |
| Cl.Oc1cccc(Nc2ncnc3cc(-c4cccc(CN5CCNCC5)c4)sc23)c1 [LCB 03-0064] | > 80% |
| COc1ccc(-c2cc3ncnc(Nc4cccc(O)c4)c3s2)cc1 [LCB 03-0017] | > 70% |
| CCN(CC)Cc1cccc(-c2cc3ncnc(Nc4cccc(O)c4)c3s2)c1.Cl [LCB 03-0063] | > 80% |
| Oc1cccc(Nc2ncnc3cc(-c4ccc(CN5CCOCC5)cc4)sc23)c1 [LCB 03-0032] | > 80% |
| Oc1cccc(Nc2ncnc3cc(-c4ccc(CN5CCCCC5)cc4)sc23)c1 [LCB 03-0035] | > 80% |
| CCNCc1ccc(-c2cc3nccc(Nc4cccc(O)c4)c3s2)cc1 [LCB 03-0099] | > 80% |
| CCNCc1cccc(-c2cc3nccc(Nc4cccc(O)c4)c3s2)c1 [LCB 03-0112] | > 80% |
| Oc1cccc(Nc2ncnc3cc(-c4ccc(CN5CCCCC5)o4)sc23)c1 [LCB 03-0088] | > 90% |
| CN1CCN(C(=O)c2ccc(-c3cc4ncnc(Nc5cccc(O)c5)c4s3)cc2)CC1 [LCB 03-0052] | > 80% |
| Oc1cccc(Nc2ncnc3cc(-c4cc(CN5CCCCC5)co4)sc23)c1 [LCB 03-0115] | > 70% |
| Oc1cccc(Nc2ncnc3cc(-c4ccsc4)sc23)c1 [LCB 03-0031] | > 70% |
| Cl.OCCNCc1ccc(-c2cc3ncnc(Nc4cccc(O)c4)c3s2)cc1 [LCB 03-0070] | > 80% |
| COC[C@@H]1CCCN1C(=O)c1cc2nccc(Nc3ccc4c(c3)cc(C)n4C(=O)NC3CC3)c2s1 [Control compound 2, reference compound] | < 20% |
| Oc1cccc(Nc2ccnc3cc(-c4cccc(CN5CCCCC5)c4)sc23)c1 [LCB 03-0109] | > 80% |
| C[C@@H]1CCC[C@H](C)N1Cc1ccc(-c2cc3ncnc(Nc4cccc(O)c4)c3s2)cc1.Cl [LCB 03-0059] | > 80% |
| COc1cccc(Nc2ncnc3cc(-c4ccoc4)sc23)c1 [LCB 03-0024] | > 70% |
| CC(NC(=O)c1ccc(-c2cc3ncnc(Nc4cccc(O)c4)c3s2)cc1)C(=O)O (centres unmarked) [LCB 03-0075] | > 80% |
| CCNCc1ccc(-c2cc3ncnc(Nc4cccc(O)c4)c3s2)o1 [LCB 03-0091] | > 70% |
| Oc1cccc(Nc2ncnc3cc(-c4ccc(CN5CCNCC5)o4)sc23)c1 [LCB 03-0090] | > 70% |
| N#Cc1ccc(-c2cc3ncnc(Nc4cccc(O)c4)c3s2)cc1 [LCB 03-0013] | > 60% |
